Tested on: MS2 coat protein
Experiment: apparent KD of MS2 coat protein; designed switch direction (-1 OFF switch, 1 ON switch): 1; higher = weaker reporter binding
Conditions: input ligand: microRNA oligo, concentration not stated
measuredProperty: apparent KD of MS2 coat protein (nM)
Reply numerically in nM, unit not repeated.

{"itemSequence": "GCGUGAGAGAUAGGAUAUCGUGUACCUACAUGUGACAUGAGGAUCACCCAUGUGGUAAGUAUGAGCGAGAAGGAUCCGAUAUGU [salish99_SSNG2_r04_1003] (Eterna round: R96, puzzle: Same State NG 2)", "apparent KD of MS2 coat protein, nM": 54.7}
{"itemSequence": "AGAUCAUGACGAGGAUAUGGUACAUGAGGAUCACCCAUGUAUGUACUAUAACCCGAAUGAGGAAUCCAGAAGGCGUCGUGGUCA [JL SSNG2 1.13] (Eterna round: R96, puzzle: Same State NG 2)", "apparent KD of MS2 coat protein, nM": 56.3}
{"itemSequence": "UUCCCAGCGGGAGGAUAUGGUGCCUUAUUGGUGCUAGAAGGUCCAACAUGAGGAUCACCCAUGUGGGAGUGGUCUAAUGACCUC [SS NG10LRO07] (Eterna round: R96, puzzle: Same State NG 1)", "apparent KD of MS2 coat protein, nM": 169}
{"itemSequence": "UAGUACAAGCUUUUUGCUUGUCUUAUUUAACAUGAGGAUCACCCAUGUAAGUUGAAAGUUAGAGAGUGCACCUUCAA [JR_SHM208A_Sub052] (Eterna round: R96, puzzle: Sensor for hsa-mir-208a)", "apparent KD of MS2 coat protein, nM": 17}

Reported apparent KD of MS2 coat protein, sequence GUAGCAUACCGAGGAUAUUCAUAUAAUAAAUAAACAUGAGGAUCACCCAUGUGGCGAAAGCCUUGGGAGAAGGCGGAAUGCUAC [Xeonanis - 20 Mod55] (Eterna round: R96, puzzle: Same State NG 2) : ____
296

---

Test system: MS2 coat protein
Experiment: apparent KD of MS2 coat protein, switch ON state; designed switch direction (-1 OFF switch, 1 ON switch): -1; higher = weaker reporter binding
Details: FMN input: 0 or 200 uM; Eterna round: R93 (includes R88 designs)
// label = YES if apparent KD of MS2 coat protein is not less than 40 nM, otherwise NO

Quick check: does AAACAACAUGAGGAUCACCCAUGUCAGGAUAUGAACGAAAUAAAAUAAAAAUAAAAGUUCAGAAGGGACGAAAA [Mat - Exclusion 1 - Eli mod - D18] have apparent KD of MS2 coat protein greater than or equal to 40 nM?
NO

Quick one: AGAAAGUCAGGAUAUGUGGAAAAAAUAAAAAAAAUAAAAACACAGAAGGGACAUGAGGAUCACCCAUGUUAAGA [Mat - Exclusion 4 - Mayanna - D139]
YES

Query AUAAGUGCAGGAUAUACAAAAUGCUAGCGAAAGCUAGCAUAACAUGAGGAUCACCCAUGUAGAAGGGCACAAUA [Tetraloop hairpin BlockHead... 61% 1] next
NO

Next record, please: AAAAAACAUGAGGAUCACCCAUGUGAGGAUAUCGGUAGUGAGGGUAUAGUGUCAAUAGUGAGAAGGCGCAUAAA [Brourd 613 Mod 13 - Jieux - Exclusion 1]
NO

# repeat for AACUGACAUGAGGAUCACCCAUGUCAGGAUAUGACUUGAUAGAAAAAAAAAUAUCAUGUCAGAAGGGACAUGGG [Design 56 :P Sub-opt I]
NO

Try this sequence too: AACUAGUCAGGAUAUACGAACAUGUCAAAAAACAUGAAGGGACAUGAGGAUCACCCAUGUAGAAGGGACUAGCA [74%, Web mod - With 3 less G's]
YES

Lookup GAAAAGUCAGGAUAUACAGAAAAAAAAACGAAAAAAAAUCUGUAGAAGGGACAUGAGGAUCACCCAUGUAAAAA [Mat - Exclusion 4 - Mayanna - D122]
YES

And the next one, AAGGGACAUGAGGAUCACCCAUGUCAGGAUAUGAUGCGAAUAAAGAAAGAAUAAAGCAUCAGAAGGGACGCCAA [Mat - Exclusion 1 - Eli mod - D65] ?
NO

Let us now turn to AGCUAGUGAGGAUAUACGAACAUGUCAAAAGACGUGAAGGAACAUGAGGAUCACCCAUGUAGAAGGCACUAGCA [Mat - Exclusion 2 - JL-Eli mod - D54]
NO

Would you kindly repeat that for AGUUGGCGAGGAUAUACAUGAGGAUCACCCAUGUGAAAGAAAAACUCGAAAGAGAAAAGUAGAAGGCGCUGACA [Mat - Exclusion 3 - Eli mod - D93] ?
NO

Likewise for GAGGAGUCAGGAUAUCGGGAAAGGUUGAGGAAGAGAAGAAGCGAGAAGGGACAUGAGGAUCACCCAUGUAGAAG [Default title] ?
YES

Check AACAGGACAGGAUAUACAUGAGGAUCACCCAUGUAGGAAUUAAGCAGAGUACCAAACAGUAGAAGGGUCAUGGA [Ruby 27] too.
NO

---

Tested on: MS2 coat protein
Experiment: apparent KD of MS2 coat protein; higher = weaker reporter binding
Settings: Eterna round: R107; input ligand: arginine 13.2 mM
# apparent KD of MS2 coat protein listing for each entry below
Give the value, in units of µM, as a plain number.

{"itemSequence": "ACAUGAGGAUCACCCAUGUGUCCUCGAAAACGAGGACCGGUACGGCCGCCACUCGAAAUAAGCUGUUGACGAAAAGUCAGCAGCA [Mat - Exclusion - Trytophan A - D21]", "apparent KD of MS2 coat protein [µM]": 0.0745}
{"itemSequence": "UGUAUGUGAUCUGAUACCAGUCCAACUGGUAAAACAUGAGGAUCACCCAUGUAAAAUUGGGACCCUUGGCAGCAGAUCGCAUACU [ThBS 2]", "apparent KD of MS2 coat protein [µM]": 0.259}
{"itemSequence": "GAAAGAUGAGGCGGCAGUACCGAUGUCGAUACCAGCAUGAACAAAUGCCCUUGGCAGCGACAUGAGGAUCACCCAUGUAUCUGCG [Reraatlaan]", "apparent KD of MS2 coat protein [µM]": 0.0145}
{"itemSequence": "CUACAUUUGUAGAAACCGGUCACCAUUAUUCGAGGACCGGUACGGCCGCCACUCGUAUCAUGUGAUACAUGAGGAUCACCCAUGU [Tryptophan A 9]", "apparent KD of MS2 coat protein [µM]": 0.0273}
{"itemSequence": "GAUAGUUGAUGGGAUACCAGCGUGCACAUGAGGAUCACCCAUGUGGUUCGUGUACGACGGCGCCCUUGGCAGCCCAUAUUGUGUA [#13 Same State - Theophylline B]", "apparent KD of MS2 coat protein [µM]": 0.0582}
{"itemSequence": "AUACAUGAGGAUCACCCAUGUUAUAGUGAAGGAGCGACAUUUAUGUCAGGUAGGUCGCACUAUUGUUUAAUGAUUCUUGGAUCUU [JR_ExcArginiA_Sub017]", "apparent KD of MS2 coat protein [µM]": 0.0169}
{"itemSequence": "UCGUGUGUUUCGGAUACCAGUGAAAUCGAUACAUGAGGAUCACCCAUGUGAGAGGAUGUACACCCUUGGCAGCUGUCUGUAUCUG [asczmullin]", "apparent KD of MS2 coat protein [µM]": 0.0147}
{"itemSequence": "AGUCACAUGAGGAUCACCCAUGUGCCAGAACGAGGACCGGUACGGCCGCCACUCGAGGCGUCCGUCGACAAUAAUGUGAACUGCA [theeternabot_sameState_MS2_Trp_A_48]", "apparent KD of MS2 coat protein [µM]": 0.0111}

Find apparent KD of MS2 coat protein (MS2 coat protein) for the entry GGACUAACUCGAAGGAGCGACACGCAGAAACUGCAAUUUCCUCCACACGAGGAUCACCCGUGUCAGGUAGGUCGCGAGUUAGUCG [ArgBX 29]
0.0208

Now the same for UACAUGAGGAUCACCCAUGUCGGCAGGGAAGGAGCGGCAAUAAAGCCAGGUAGGUCGCCCAUUAGUAUUUAUAAAUAAAUAUCCA [Same State - Arginine A]
0.0536

Can you check AGCACAUGAGGAUCACCCAUGUGAGGUGAUACCAGUGAGAAGAAGCACCCUUGGCAGCACUUGGGUACAUGAGGAUCACCCAUGU [Exclusion Theophylline A GF9] next?
0.0474

Also need GGAUAGGACAGAAGGAGCGACAUGGCGACGAAAGUCGGACCUUCACAUGAGGAUCACCCAUGUCAGGUAGGUCGCUGUCCUAUCG [ArgXB 6 #MS2Gate #StaticStem] , thanks.
0.038

Field entry: GGACGAAGUUUCUUGUCCGGUCGCUGAGAAGGAGCGCGGUAAACCGCAGGUAGGUCGCUCAGAAAUACAUGAGGAUCACCCAUGU [Orsosous]
0.0171

Note, next up: UGUAUGGACUGAAGGAGCGGGAAAUAAACCUGAGGAACACCCAGGUAAUAGGCGAAAGCCACCCAGGUAGGUCGCAGUCCAUACU
0.0172

Then what about the sequence AGCCCUGUACUAGAUACCAGCUACAUGAGGAUCACCCAUGUGCGUCAAGACUGACUGUGUAGCCCUUGGCAGCUGCUCGCAUGUA [Exclusion - Theophylline B (Freestyle 2)] ?
0.0197

Repeat with AAUUAUCACGGAAGGAGCGUCAUGAAAUUGAUACAUGAGGAUCACCCAUGUGAGUGUUAGAGACAGGUAGGUCGCCGAUUAUUGA [JR_AAArginiB_Sub028]
0.0249

Same lookup for CUGGACAUGAGGAUCACCCAUGUAAAUCCUCGAGGACCGGUACGGCCGCCACUCGAACGAGUGGCGCGCGAGUGCGCACUCGCGC [aKa] , please.
0.0436

Then this sequence: UUACCGUAAGGUAUACCGGUCUACAAUAAUCGAGGACCGGUACGGCCGCCACUCGAUGUGUAAUCACAUGAGGAUCACCCAUGUA [Tryptophan A 19]
0.0211

Try GGACUAACCAGAAGGAGCGACACGCAGAAACUGCAAUUUCCUCCACACGAGGAUCACCCGUGUCAGGUAGGUCGCUGGUUAGUCG next.
0.0283

Also need GCCGCGGCCGCGAUACACAUGGGUGUGUAACGAGGACCGGUACGGCCGCCACUCGAGAUGAUGUACAUGAGGAUCACCCAUGUAC [Exclusion Tryp A GF13] , thanks.
0.0118

Then what about the sequence UAUAUAUUGAUGGAUACCAGCAGAGAAAACGUUUAUCCUAACAUGAGGAUCACCCAUGUAUGCCCUUGGCAGCUGUUGAUAUAUA [8.K] ?
0.0217

And then CACAUGAGGAUCACCCAUGUCUGAACUGAAGGAGCGCUAAACAAGGCAGGUAGGUCGCGGAAUUUUGUGUGCAUAUGCACAUGGG [9.O] , what is it?
0.0197

Same read-out for GGGACUAGAUCGGCCGCCACUGAUGGGACAUGAGGAUCACCCAUGUACGAAGUGAUCCAAUAAAUCAGGACCGGGAUCACUUGUA [Tryp B Ex t6] ?
0.0643

Now give it for UGAACAUGAGGAUCACCCAUGUAGAGGGAAGGAGCGUCGAAGAAGACAGGUAGGUCGCCCAGAAAGAAAUCCUCAUGGAUAAGAA [Same State Arginine A GF2] too.
0.0862
